Could you please report measured growth for the items listed next?
Test system: MCF7 breast
Test: NCI-60 one-dose screen, 48 h (100 = growth as untreated, 0 = no growth, -100 = all killed)
Settings: 10 µM unless noted
The panel holds about 83,000 compounds, 20% with a hit somewhere; the sample as a whole holds those more often.
Form entry: value (%) — number only.

Requested field: growth. Item: CCOC(=O)C1=C(C)N=C2SC=C(c3ccc(F)cc3)N2[C@H]1c1cn(-c2ccccc2)nc1-c1ccc(Cl)cc1
87.2

Follow-up entry: N#C/C(=C\c1ccc(Br)cc1)n1nnc2c(F)cccc21
12.7

Follow-up entry: Nc1n[nH]c2cccc(C#Cc3cccc(NC(=O)c4ccc(N5CCOCC5)c(C(F)(F)F)c4)c3)c12
25.6

Follow-up entry: O=C(CN1C(=O)S/C(=C\C(Cl)=C\c2ccccc2)C1=O)NC1C=CS(=O)(=O)C1 (stereo not given)
11.1

Follow-up entry: O=C1c2cccc3cccc(c23)C(=O)N1N1C(=O)c2cccc3c(N4CCNCC4)ccc(c23)C1=O
29

Follow-up entry: Nc1c(C(=O)Nc2ccncc2)sc2nc3c(cc12)CCCCCCCC3
-83.4

Follow-up entry: O=C(N=Nc1c(O)[nH]c2ccccc12)Nc1ccccc1Cl
19.8

Follow-up entry: COc1ccc(/C(C)=C(\c2ccc(OCCN3CCCCCC3)cc2)c2ccc(OC(=O)C3CCCCC3)cc2)cc1
-23.6

Follow-up entry: O=C(N/N=C/c1ccc(O)cc1O)c1cccc(Nc2ccnc(C(F)(F)F)c2)c1
21.2

Follow-up entry: Cc1ccc(NC(=O)c2sc3nc(C)c(C(=O)c4ccccc4)cc3c2N)cc1
70.9

Follow-up entry: CCCCCCCC/C=C\CCCCCCCCOc1ccccc1CC(=O)NCC[N+]1(C)CCOCC1
82.2

Follow-up entry: CC(=O)N1N=C(c2ccc(F)cc2)CC1c1sc(N(C)Cc2ccccc2)nc1Cl (stereo not given)
76

Follow-up entry: O=[N+]([O-])c1cc(C(F)(F)F)ccc1Sc1ccc(C(F)(F)F)cc1[N+](=O)[O-]
67.7

Follow-up entry: CCN(CC)CCOc1ccccc1C
100

Follow-up entry: CCCCSc1ccc2nc(-c3ccc(OCCCN=C(N)N)cc3)cn2c1
47

Follow-up entry: CCNC(=O)Nc1ncccc1OCc1ccc(F)cc1
84

Follow-up entry: C=C1C(=O)O[C@H]2[C@H]1CC/C(COC(=O)NCc1ccc(Cn3c(=O)sn(CCCI)c3=O)cc1)=C\CC[C@@]1(C)O[C@@H]21
4.45

Follow-up entry: CCN1CCN(CC(=O)Nc2nc3ccc(NCc4ccc(C)cc4)cc3s2)CC1
35.6

Follow-up entry: COc1cc(F)c(/C=C/c2cc(/C=C/c3cc(OC)c(OC)cc3F)n(-c3cc(F)cc(F)c3)n2)cc1OC
8.88

Follow-up entry: COc1cc(-c2nc(SCCC(C)C)nc(Nc3ccc(F)cc3)c2C#N)cc(OC)c1OC
87

Follow-up entry: O=C1/C(=C/c2ccc(-c3cccc(C(F)(F)F)c3)o2)SC(=S)N1CCc1ccc(O)cc1
84.9

Follow-up entry: COc1c(F)cc(-n2c(C(=O)N3CC(F)C3)cc3cccnc32)cc1F
105

Follow-up entry: O=C(CCl)n1nnnc1Cc1ccccc1
101

Follow-up entry: Nc1ccc(-c2ccc(N)c(Br)c2)cc1Br
17.9

Follow-up entry: Nc1nc(CSc2n[nH]c(N)n2)nc(Nc2ccccc2)n1
93.3

Follow-up entry: C=C1C(=O)O[C@H]2[C@H]1CC/C(COC(=O)NCCCCNC(=O)OC/C1=C/CC[C@@]3(C)O[C@H]3[C@H]3OC(=O)C(=C)[C@@H]3CC1)=C\CC[C@@]1(C)O[C@@H]21
9.53

Follow-up entry: N#CSc1c[nH]c2ccc(/C=C/C(=O)/C=C(/C=C/c3ccc4[nH]cc(SC#N)c4c3)OB(F)F)cc12
7.23

Follow-up entry: CC1(Cc2ccccc2)CC2=C(C(=O)O1)C(c1ccccc1)NC(=O)N2 (stereo not given)
105

Follow-up entry: Cc1ccc(-c2nc(SCC(=O)c3ccc(C#N)cc3)[nH]c(=O)c2C#N)cc1
96.5

Follow-up entry: Cc1ccc(S(=O)(=O)OC[C@@]2(C)CC[C@]3(C)CC[C@]4(C)C(=C3C2)C=C[C@@H]2[C@@]3(C)CCCNC(C)(C)[C@@H]3CC[C@]24C)cc1
-4.17

Follow-up entry: O=C(NNc1ccccc1)c1ncc[nH]1
56.5

Follow-up entry: CN1CCN(Cc2ccc(NC(=O)c3nc4ccc5[nH]ncc5c4c4c3CCCC4)cc2C(F)(F)F)CC1
-68.5

Follow-up entry: N=c1c2c(-c3ccccc3)c(-c3ccccc3)oc2ncn1NC(=O)c1cccnc1
98.5

Follow-up entry: C=CCOc1ccc(/C=C2\SC(=S)N(CCc3ccc(O)cc3)C2=O)cc1
86.5

Follow-up entry: COc1cc(/C=C2\CCC/C(=C\c3cc(CN4CCCC4)c(O)c(OC)c3)C2=O)cc(CN2CCCC2)c1O
14.3

Follow-up entry: OB(O)c1ccsc1-c1nc2ccc3[nH]ncc3c2c2c1CCCC2
49.3

Follow-up entry: N#C/C(=N\Nc1ccc(Cl)cc1)C(=O)Nc1cc(-c2ccccc2)nn1-c1ccccc1
16.9

Follow-up entry: Cc1[nH]c(C(=O)Nc2nc3ccc(NC(=O)CCN)cc3s2)c(Cl)c1Cl
52.3

Follow-up entry: CCOC(=O)n1cc(-c2nonc2-c2cn(C)c3ccc(OC)cc23)c2cc(F)ccc21
77.6

Follow-up entry: Cc1c(CC(=O)OCCO)cc(-c2ccc(Cl)cc2)n1-c1ccccc1
93
